Experiment: yeast display, Sf9 membrane polyspecificity reagent, FACS + sequencing; frameworks hold sequencing errors
measurement-type: polyreactivity (PSR sort gate)

Known polyreactivity (PSR sort gate) results, listed for orientation:
QVQLVESGGGLVQAGGSLRLSCAASGRTLEDYVMGWYRQAPGKERELVAAISWSGVSTYYADSVKGRFTISRDNEKNTVYLQMNSLKPEDTAVYYCAKDSTADELTGFDYWGQGTQVNVSS: low polyreactivity
QVQLVESGGGLVQAGGSLRLSCAASGRILLHYAMGWYRQAPGKERELVAAITSTGGTTYYADSVKGRFTISRDYAKNTFYLQMNSLKPEDTAVYYCAAKRQDSWGGTYGYWGQGTQVTVSS: low polyreactivity
QVQLVESGGGLVQAGGSLRLRCAASGFTFFAYALGWYRQAPGKESELVAGISRSGGRTYYADSVKWRFTISRDNAKNTVYLQMNSLKPEDTAVYYCAAGIPVTSRHLGYWGQGTQVTVSS: high polyreactivity
QVLLVESGGGLVQAGGSLRLICDDSGFIFTYYAMGLYRQAPVTEREFVAAIRASGGSTYYSYSVKGRFTISRDKAQNTVYLQMNSLKPEETAVYYCAARYRQRLRSTSYDYWGQGTQVTVSS: high polyreactivity
QVQLVESGGGLVQAGGSLRLSCAASGSTFGTYARGWYRQAPGKERELVAAISWSGGSTYYADSVKGRFTISRDNAKNTVYLQMNSLKPEDTAVYYCNAKTSIGTWVGDDYWGQGTQVTVSS: low polyreactivity

Below is a list of sequences. For each, state its recorded polyreactivity (PSR sort gate).
1. QVQLVESGGGLVQAGGSLRLSCAASGITSWYYAMGWYRQAPGKERELVAAITSDGSTYYADSVKGRFTISRDNAKNTVYLQMNSLKPEDTAVYYCAAERDYWIPDSYLVGMDYWGQGTQVTVSS
2. QVQLVESGGGIVQAGGSLRISCAASGSIFFGYAMGWYRPATGKERELVADITVGGGSPFYADSVKGRFTISRDNEKNTVYLQMNSLKPDDTAVYYCADDYYTQWLTRYDYWGQGTQVTLSS
3. QVQLVESGGGLVQAGGSLRLSCAASGFIFSFYAMGWYRQAPGKERELVAAITSSGATTYYADSVKGRFTISRDNAKNTVYLQMNSLKPEDTAVYYCNAVYRRDTGYYRYYYWGQGTQVTVSS
4. QVQLVESGGGLVQAGGSLRLSCAASGRILVRNAMGWYRQAPGQERELVAAITRTGASTYYADSVKGRFTISRDNPKNTVYLQMNSLKPEDTAVYYCAAVWGLPYWVYRYDYWGQGNQVTVSS
5. QVQLVESGGGLVQAGGSLRLSCAASGRISVYNAMGWYRQAPGKERELVAAISRGSTNYADSVKGRFTISRDNAKNTVYLQMNSLKPEDTAVYYCAARSVSFPWRRYAGYDYWGQGTQVTVSS
6. QVQLVESGGGLVQAGGSLRLSCAAYGFIFLENDMGWYRQAPGKERELVASINSGSDTNYADSVKGRFTISRDNAKNTVYLQMNSLKPEDTAVYYCNASYNGVPARYDYWGQGTQVTVSS

1. low polyreactivity
2. low polyreactivity
3. high polyreactivity
4. high polyreactivity
5. high polyreactivity
6. low polyreactivity

----------
Assay: yeast display, Sf9 membrane polyspecificity reagent, FACS + sequencing; frameworks hold sequencing errors
measurement-type: polyreactivity (PSR sort gate)

Known polyreactivity (PSR sort gate) results, listed for orientation:
QVQLVESGGGLVQAGGSLRLSCAASGSIFRVYAMGWYRQAPGKERELVAAITYSSGSTYYADSVKGRFTISRDNAKNTVYLQMNSLKPEDTAVYYCAAYWSYYLREFDYWGQGTQVTVSS: high polyreactivity
QVKLVESGGGLVQAGGSIRLSCAASGSIFWYYAMGWYRQAPGKERELVATITSGGSTSYADSVKGRFTISRDNAKNTVYLQMKSLKPEDTAVYYCAAARLFTTYDWGQGTQVTVSS: low polyreactivity
QVQLVESGGGLVQAGGSLRLSCAASGSTLFYAMGWYRQAPGKERELHAAISWSGGSTRYADSVKGRFTISRDNAKNTVYLQMNIMKPEDTAVYYCNTYTKHTGYYWKYDYWGQGTQVTVSS: low polyreactivity
QVQLVESGGGLVQAGGSLRLSCAASGRTSGFNTMGWYRQAPGKERELVAAISFSGGSTYYADSVKGRFTISRDNAKNTVYFQMNSLKPEDTAVSYCNALFRYLYRSGDYWRQGTQVTVSS: low polyreactivity
QVQLVESCGGLVQAGGSLRLSCADSGRTFYKYAMGWYRPAPVKERELVAAITSGGGRTYYADSVKGRFTISRDNAKNTVYLQMNSLKPEDTAVYYCNAVLPLAKYEYDSWGQGTQVTVSS: high polyreactivity

Below is a list of sequences. For each, state its recorded polyreactivity (PSR sort gate).
1. QVQLVESGGGLVQAGGSLRLSCAASGFTFDFYAMGWYRQAPGKERELVAAISKNDGTTYYADSVKGRFTISRDNAKNTVYLQMNSLKPEDTAVYYCAAESGYAVYTYVSSGDYWGQGTQVTVSS
2. QVQLVESGGGLVQAGGSLRLRCAASGFTFGAYAMGWYRQAPGKERELVATIDWRGSSTYYADSVKGRFTISRDNAKNTVYLQMNSLKPEDTAVYYCAARLARGSYAYEYWGQGTQVTVSS
3. QVQLVESCGGLVQAGGSLRLSCAASGSTFGYYTMGWYRQAPGKEREFVAAITRSTGSTFYADSVKGRFTISRDNAKNTVYLQMNRLKPEDTAVYDCAATQPWYNTRTRYGSWGQGTQVTVSS
4. QVQLVESGGGLVQAGGSHRLSCAASGSIFYAYAMGWYRQAPGKERELVAAITGSGGRTYYADSVKGRFTISRDNAKNTVYLQMNSLKPEDTAVYYCNAYYYRGSSYGYWGQGTQVTVSS
5. QVQLVESGGGLVQAGGSLRLSCAASGRTFGWNAMGWYRQAPGKERELVAAISRTGNTYYADSVKGRFTISRDNAKNTVYLQMNSLKPEDTAVYYCAKGRYYTPTYFRGVDLYDYWGQGTQVTVSS
6. QVQLVESGRGLVQAGGSLRLSCAASGIIFPFYAMGCYRQAPGKERELVAAITSGDDTYYADSVKGRFTISRDNAKNTVYLQMNSLKPEDTAVYYCNKRLYIAGYWPQLYYIMDYWGQGTQVTVSS

1. low polyreactivity
2. low polyreactivity
3. low polyreactivity
4. high polyreactivity
5. low polyreactivity
6. low polyreactivity
